Would you mind telling me the reported viability, T/C of each entry?
test system: 958667-338-R-J2-PDC tumor spheroids viability; assay: Anticancer human tumor 958667-338-R-J2-PDC patient-derived colon adenocarcinoma cell line growth inhibition [PI3K]; details: second compound 0.00316 µM; first compound 0.01 µM; stronger effect = lower value; spheroids with HUVEC and MSC
Numbers only, in %.

Recorded viability, T/C, per entry:
INSERT INTO results (compound, parameter_measured, reported_measurement) VALUES
  ('CCN1CCN(Cc2ccc(Nc3ncc(F)c(-c4cc(F)c5nc(C)n(C(C)C)c5c4)n3)nc2)CC1 + COc1c(OCCCN2CCOCC2)ccc2c3n(c(=NC(=O)c4cnc(N)nc4)nc12)CCN3', 'viability, T/C', 106),
  ('CC(=O)c1c(C)c2cnc(Nc3ccc(N4CCNCC4)cn3)nc2n(C2CCCC2)c1=O + COc1c(OCCCN2CCOCC2)ccc2c3n(c(=NC(=O)c4cnc(N)nc4)nc12)CCN3', 'viability, T/C', 98.2),
  ('CC(=O)c1c(C)c2cnc(Nc3ccc(N4CCNCC4)cn3)nc2n(C2CCCC2)c1=O + CC(Nc1ccc2c(c1)OCCn1cc(N3C(=O)OCC3C(F)F)nc1-2)C(N)=O', 'viability, T/C', 104);

Batch request: viability, T/C per item, same order as input.
1. CC(C)n1nc(-c2ccc3oc(N)nc3c2)c2c(N)ncnc21 + CC(Nc1ccc2c(c1)OCCn1cc(N3C(=O)OCC3C(F)F)nc1-2)C(N)=O
2. Cn1ncnc1[C@H]1c2n[nH]c(=O)c3cc(F)cc(c23)N[C@@H]1c1ccc(F)cc1 + CC(Nc1ccc2c(c1)OCCn1cc(N3C(=O)OCC3C(F)F)nc1-2)C(N)=O
3. CC(C)n1nc(-c2ccc3oc(N)nc3c2)c2c(N)ncnc21 + COc1c(OCCCN2CCOCC2)ccc2c3n(c(=NC(=O)c4cnc(N)nc4)nc12)CCN3
4. Cn1ncnc1[C@H]1c2n[nH]c(=O)c3cc(F)cc(c23)N[C@@H]1c1ccc(F)cc1 + COc1c(OCCCN2CCOCC2)ccc2c3n(c(=NC(=O)c4cnc(N)nc4)nc12)CCN3

[91.7, 101, 103, 102]

---

tested on: 958667-338-R-J2-PDC tumor spheroids viability; assay: Anticancer human tumor 958667-338-R-J2-PDC cell line growth inhibition [PI3K]; settings: second compound 0.316 µM; first compound 0.01 µM; stronger effect = lower value; spheroids with HUVEC and MSC;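 note: spheroids exposed to compounds for seven days before readout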
We label by threshold. Values of viability, T/C strictly beneath 80% are Met. Values of 80% and up are Not met.

// known answers, use as guide
INSERT INTO results (compound, assayed_system, answer_label) VALUES
  ('CC(C)n1nc(-c2ccc3oc(N)nc3c2)c2c(N)ncnc21 + CC(Nc1ncnc2nc[nH]c12)c1cc2cccc(Cl)c2c(=O)n1-c1ccccc1', '958667-338-R-J2-PDC tumor spheroids viability', 'Not met'),
  ('CCN1CCN(Cc2ccc(Nc3ncc(F)c(-c4cc(F)c5nc(C)n(C(C)C)c5c4)n3)nc2)CC1 + CC(Nc1ncnc2nc[nH]c12)c1cc2cccc(Cl)c2c(=O)n1-c1ccccc1', '958667-338-R-J2-PDC tumor spheroids viability', 'Not met'),
  ('Cn1ncnc1[C@H]1c2n[nH]c(=O)c3cc(F)cc(c23)N[C@@H]1c1ccc(F)cc1 + COc1c(OCCCN2CCOCC2)ccc2c3n(c(=NC(=O)c4cnc(N)nc4)nc12)CCN3', '958667-338-R-J2-PDC tumor spheroids viability', 'Met'),
  ('CC(=O)c1c(C)c2cnc(Nc3ccc(N4CCNCC4)cn3)nc2n(C2CCCC2)c1=O + CC(Nc1ncnc2nc[nH]c12)c1cc2cccc(Cl)c2c(=O)n1-c1ccccc1', '958667-338-R-J2-PDC tumor spheroids viability', 'Not met');

Turning now to a further compound:
viability, T/C strictly < 80% for this compound? CC(C)n1nc(-c2ccc3oc(N)nc3c2)c2c(N)ncnc21 + COc1c(OCCCN2CCOCC2)ccc2c3n(c(=NC(=O)c4cnc(N)nc4)nc12)CCN3
Met
